# Tested on: RXF 393 renal
# Protocol Summary: NCI-60 one-dose screen, 48 h (100 = growth as untreated, 0 = no growth, -100 = all killed)
# Cond: 10 µM unless noted
About 83,000 compounds went through this panel and 20% of them were active in at least one assay; those are over-represented in the sample as a whole.
Measurement Type: growth (%)

>>> experimental_result("CN1CCN(Cc2ccc(NC(=O)c3cccc(C#Cc4cnc(N)c5ncccc45)c3F)cc2C(F)(F)F)CC1")
-76.5
>>> experimental_result("CCOC(=O)c1ccc(N(CCC(=O)O)C(C)=O)cc1")
106
>>> experimental_result("CCCCOc1ncnc2nc[nH]c12")
97.7
>>> experimental_result("c1ccc(C(Nc2ccccn2)(c2ccccc2)c2ccccc2)cc1")
82.9
>>> experimental_result("Clc1ccc(Nc2ncnc3c2sc2ncccc23)c(Cl)c1")
34
>>> experimental_result("Nc1nc(N)c2cc(Sc3ccc(Cl)cc3)ccc2n1")
42.4

* * *

# Test system: UACC-62 melanoma
# Protocol Summary: NCI-60 one-dose screen, 48 h (100 = growth as untreated, 0 = no growth, -100 = all killed)
# Cond: 10 µM unless noted
About 83,000 compounds went through this panel and 20% of them were active in at least one assay; those are over-represented in the sample as a whole.
This listing pairs compounds with measured growth.
Measurement Type: growth (%)

>>> experimental_result("Cc1ccc(NC(=O)c2[nH]c(SCCN(C)C)nc2-c2ccc(F)cc2)cc1Nc1ccc2ncn(C)c(=O)c2c1")
12.5
>>> experimental_result("COCCOCCOCc1n(Cc2ccc3ccccc3n2)c2ccccc2[n+]1Cc1ccc2ccccc2c1")
-38.5
>>> experimental_result("CC(C)(C)NC(=O)C(OC(=O)C1CCc2cc(F)ccc2O1)c1ccccc1Cl (stereo not given)")
87.6
>>> experimental_result("CCC(=O)NC(O)C(Cl)(Cl)C(C)Cl (stereo not given)")
97.5
>>> experimental_result("O=C(/C=C/c1cc([N+](=O)[O-])ccc1Cl)c1ccccc1")
70.5
>>> experimental_result("O=C(Oc1c(Cl)c(Cl)c(Cl)c(Cl)c1Cl)C1CCCN1C(=O)OCc1ccccc1 (stereo not given)")
75.2
>>> experimental_result("Nc1cccc(S(=O)(=O)c2cccc(N)c2)c1")
102
>>> experimental_result("C=CCN(CCOC(=O)c1ccc([N+](=O)[O-])cc1)CCOC(=O)c1ccc([N+](=O)[O-])cc1")
110
>>> experimental_result("CCCCCCCCNC(C)C(O)c1ccc(SC(C)C)cc1 (stereo not given)")
92.7
>>> experimental_result("O=Cc1ccc2nc(C(Cl)(Cl)Cl)ccc2c1")
106
>>> experimental_result("CCCCCCCCCCCCCCCCCC1=NC(C)(C)CN1C(C)(C)CO")
-86.9
>>> experimental_result("CCN(CC)CCCCCCCNc1cc(OC)cc2c(C)ccnc12")
91.3
>>> experimental_result("Brc1cccc(-n2ncc3c(Nc4ccc(-c5nnc(-c6ccccc6)o5)cc4)ncnc32)c1")
93.3
>>> experimental_result("Cc1cc2nc3c(=O)[nH]c(=O)nc-3n(CC=O)c2cc1C")
92.2
>>> experimental_result("O=NN(CC(=O)NNc1ccccc1)CC(=O)NNc1ccccc1")
3.99
>>> experimental_result("Cc1ccc(-c2nc3ccccc3c(=O)n2/N=C/c2cccc3ccccc23)cc1")
69.4
>>> experimental_result("C#CC[C@@H]1C[C@]2(C)[C@H]3CC=C4[C@H]5CC(C)(C)CC[C@]5(C(=O)NCCCCN)CC[C@@]4(C)[C@]3(C)CC[C@H]2C(C)(C)[C@H]1OC(C)=O")
106
>>> experimental_result("Clc1ccc2c(c1)-c1ccccc1C1=NCCN12")
30.3
>>> experimental_result("COC(=O)C1(C)COP(=O)(NC23CC4CC(CC(C4)C2)C3)OC1 (stereo not given)")
109
>>> experimental_result("Cc1nc2ccc(Nc3nc(N4CCOCC4)nc(N4CCN(C)CC4)n3)cc2n1Cc1ccccc1")
107
>>> experimental_result("Cc1cc(C)c2c(NC(=O)Nc3ccc(Cl)c(Cl)c3)n[nH]c2n1")
103
>>> experimental_result("CCOC(=O)c1c(NC(=O)c2ccccc2)sc2c(O)c(CN(CC)CC)ccc12")
21.2
>>> experimental_result("CCN(CC)c1ccc(C(=N)c2ccc(N(C)C)cc2)cc1")
5.14
>>> experimental_result("CSC(=S)N/N=C(\\C)c1ccccn1")
-22.3
>>> experimental_result("COc1cc(C(=O)/C=C/c2cn(-c3ccccc3)nc2-c2cccc(Nc3ccnc4cc(Cl)ccc34)c2)cc(OC)c1OC")
104
>>> experimental_result("CO[C@@]12[C@@H]3NC3CN1C1=C(C(=O)C(N)=C(C)C1=O)[C@@H]2COC(N)=O (stereo not given in full)")
-15.9
>>> experimental_result("COc1ccc(C2C3CCc4ccccc4C3=NN2C(=O)c2cc(OC)c(OC)c(OC)c2)cc1O (stereo not given)")
105
>>> experimental_result("Cn1nc(C(F)(F)F)cc1-c1cc(Cl)c(OCc2ccc(Cl)cc2)c(-c2ccc(Cl)c(C(F)(F)F)c2)c1O")
4.43
>>> experimental_result("CCc1ccc2c(c1)N(CCO)C1=C(C(=O)OC1)C2c1cccc(Br)c1 (stereo not given)")
35.5
>>> experimental_result("CC(C)N1CCN(c2ccncc2S(=O)(=O)N2CCN(C)CC2)CC1")
108
>>> experimental_result("Cc1cc(NC(=O)c2ccc(N)cc2)ccc1N=Nc1ccc2cc(S(=O)(=O)O)cc(S(=O)(=O)O)c2c1")
114
>>> experimental_result("O=[N+]([O-])c1ccccc1CN1CCCCC1")
103
>>> experimental_result("COc1ccc(-c2nnc(SCC(=O)Nc3ccc(C(=O)/C=C/c4ccc(Cl)cc4)cc3)n2-c2ccccc2)cc1")
83.7
>>> experimental_result("CCOC(=O)C1=C(C)NC(SCc2nnc(-c3ccc(Cl)cc3)o2)=NC1c1ccc(Br)cc1 (stereo not given)")
55.3
>>> experimental_result("O=C1CC2(O)CSc3nc(=O)cc(n32)N1 (stereo not given)")
102
>>> experimental_result("C=CCn1c(SCC(=O)Nc2ccc(C(=O)/C=C/c3ccc(Cl)cc3)cc2)nnc1-c1ccc(Cl)cc1")
71.2
>>> experimental_result("Cc1ccc(NC(=O)c2nc(S(C)=O)oc2-c2ccc(F)cc2)cc1Nc1nccc(-c2cccnc2)n1 (stereo not given)")
65
>>> experimental_result("COc1ccc([C@@H]2[C@@H](Oc3ccccc3)C(=O)N2c2cc(OC)c(OC)c(OC)c2)cc1F")
0.0629
>>> experimental_result("N#Cc1c(N)c(C(=O)c2ccc3c(c2)OCCO3)n2c1CCCC2")
38
>>> experimental_result("O=C(C=P(c1ccccc1)(c1ccccc1)c1ccccc1)CCl")
-78.3

* * *

Listed here: items and their measured growth.
# System: MALME-3M melanoma
# Protocol Summary: NCI-60 one-dose screen, 48 h (100 = growth as untreated, 0 = no growth, -100 = all killed)
# Cond: 10 µM unless noted
The panel holds about 83,000 compounds, 20% with a hit somewhere; the sample as a whole holds those more often.
Measurement Type: growth (%)

>>> experimental_result("Cc1n(Cc2ccc3ccccc3n2)cc[n+]1Cc1ccc2ccccc2n1")
55.9
>>> experimental_result("CC1(C)CC[C@]2(C(=O)N3CCNCC3)CC[C@]3(C)C(=CC[C@@H]4[C@@]5(C)CCC(=O)C(C)(C)[C@@H]5CC[C@]43C)[C@@H]2C1")
112
>>> experimental_result("CC(OC(=O)Nc1cccc(Cl)c1)C(=O)O (stereo not drawn)")
116
>>> experimental_result("CCOP(=O)(O)OP(=O)(O)OCC")
98.1
>>> experimental_result("Cc1cc(C)c2c(n1)sc1c(Nc3ccc(O)cc3)ncnc12")
63.9
>>> experimental_result("CCOC(=O)c1c(NC(=O)c2ccccc2)sc2c(O)c(CN(CC)CC)ccc12")
38.1
>>> experimental_result("CC(=O)O[C@H]1[C@H](CC#CC#CC[C@@H]2C[C@]3(C)[C@H]4CC=C5[C@H]6[C@@H](C)[C@H](C)CC[C@]6(C(=O)NCCCCCCCCN)CC[C@@]5(C)[C@]4(C)CC[C@H]3C(C)(C)[C@H]2OC(C)=O)C[C@]2(C)[C@H]3CC=C4[C@H]5[C@@H](C)[C@H](C)CC[C@]5(C(=O)NCCCCCCCCN)CC[C@@]4(C)[C@]3(C)CC[C@H]2C1(C)C")
105
>>> experimental_result("C=C(C)c1ccc(/C=N/NC(N)=S)cc1")
116

* * *

# Tested on: HOP-92 NSCLC
# Protocol Summary: NCI-60 one-dose screen, 48 h (100 = growth as untreated, 0 = no growth, -100 = all killed)
# Cond: 10 µM unless noted
About 83,000 compounds went through this panel and 20% of them were active in at least one assay; those are over-represented in the sample as a whole.
The following molecules are shown together with reported growth values.
Measurement Type: growth (%)

>>> experimental_result("O=C(Cc1ccc(Nc2ccnc(C(F)(F)F)c2)cc1)N/N=C/c1ccccc1O")
75.8
>>> experimental_result("COc1ccc(C(=O)/C=C/c2cn(-c3ccccc3)nc2-c2cccc(Nc3ccnc4cc(Cl)ccc34)c2)cc1")
64.9
>>> experimental_result("O=C(Cn1nncc1CN1C(=O)CSC1=O)Nc1ccc(F)cc1")
104
>>> experimental_result("CCCCCCCCNC(C)C(O)c1ccc(SC(C)C)cc1 (stereo unspecified)")
-28.1
>>> experimental_result("CC1(C)C2CCC(O)(C(=O)O)C1C2 (stereo unspecified)")
117
>>> experimental_result("CNC(=O)c1ccccc1Sc1ccc2c(/C=C/c3ccccn3)n[nH]c2c1")
9.47
